Provenance of the data: paper PMC5540273

System: CAMK2G
conditionDetails: concentration: 1 μM, replicates: in singlicate; n = 1;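 also: KINOMEscan kinase panel screen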
measuredEndpoint: %Inh (%)
# unit: % | format: bare number

Before answering, review these 4 worked examples.
Cn1ccc2ncnc(Oc3cccc(C(=O)Nc4ccccc4)c3)c21 | 19
COC(=O)c1c(-c2ccccc2)c2cc(C(=O)O)ccc2c(=O)n1Cc1ccccc1 | 0
COc1ccc(Nc2nccc(NCCNC(=O)Nc3ccccc3F)n2)cc1 | 13
Cl.c1ccc(-c2n[nH]cc2-c2ccnc(-c3ccc(CN4CCOCC4)cc3)c2)nc1 | 13

// below: %Inh requested for another compound
Task: Please supply the value of reported %Inh for the item `COc1cccc(-c2cc(-c3c[nH]nc3-c3ccccn3)ccn2)c1`
Result: 15

====

System: BLK
conditionDetails: concentration: 1 μM, replicates: in singlicate; n = 1
# %Inh values compiled below

Recorded %Inh, per entry:
COc1cccc(NC(=O)NC2CCN(c3ccnc(Nc4ccc(F)cc4)n3)C2)c1 (stereo not drawn) | 0%
CCCc1ccc(S(=O)(=O)NC2CCN(c3ccnc(Nc4ccc(F)cc4)n3)C2)cc1 (stereo not drawn) | 0%
Fc1cc(Cl)ccc1Nc1ccnc2cc(-c3ccc(CN4CCCCC4)o3)ccc12 | 55%
CC(=O)Nc1nc2cnc(Nc3cc(NC(=O)c4cccc(CCC#N)c4)ccc3C)nc2s1 | 0%
COc1ccccc1-c1ccc2c(NC(=O)C3CC3)n[nH]c2n1 | 6%

Task: Answer with %Inh of `Cn1ccc2ncnc(Oc3ccc(NC(=O)Nc4ccccc4)cc3)c21` measured for BLK.
Result: 2%

Task: Report measured %Inh on BLK; entry: `Cc1cc(-c2ccc3c(c2)CC[C@@H](N[C@@H](C)c2ccccc2)C3)cnc1N.Cl`
Result: 13%

Task: Identify measured %Inh obtained with BLK for `Cc1cccc(-c2nc(Nc3ccc4[nH]ncc4c3)c3ccccc3n2)n1` .
Result: 3%

Task: With BLK as the test system, provide measured %Inh for this compound: Cc1nnc(-c2ccc3occ(-c4ccc(S(C)=O)cc4)c3c2)[nH]1 (stereo not drawn)
Result: 0%

Task: Name the value of %Inh reported for `Cn1ccc2ncnc(Oc3ccc(Nc4nc5ccccc5[nH]4)cc3)c21` when tested on BLK.
Result: 0%

Task: State recorded %Inh with BLK, entry `Cc1cc(N2Cc3ccccc3C2)nc(Nc2ccc(S(=O)(=O)N3CCOCC3)cc2)n1.Cl` , no comment.
Result: 16%

Task: Jot down %Inh (BLK) of `Cl.NC(=O)c1cccc(Nc2nccc(Nc3ccc(Oc4cccc(Cl)c4)c(Cl)c3)n2)c1` .
Result: 84%

====

Tested on: PKN1
conditionDetails: concentration: 1 μM, replicates: in singlicate; n = 1
measuredEndpoint: %Inh (%)
Write the value in % as a bare number.

// known answers, use as guide
Cc1cccc(-c2cc(Nc3ccncc3)c3ccccc3n2)n1 [GSK223675] | 46
COc1ccc(C2=C(Nc3cccc(C(=O)O)c3)C(=O)NC2=O)cc1 [SB-390765] | 18

Would you kindly look at the next entry?
Task: Give me measured %Inh, please, for this compound: COc1ccccc1-c1ccc2c(NC(=O)C3CC3)n[nH]c2n1 [SB-711239]
Result: 12

====

Test system: PRKD2
conditionDetails: concentration: 1 μM, replicates: in singlicate; n = 1
// reported %Inh per item
Give just the numeric value; % need not be written.

Past entries and their recorded results:
Cc1c(O)cccc1Nc1ccnc2ccc(C(F)(F)F)cc12.Cl [GW466413] | 0
Nc1nc(-c2nccs2)c(-c2ccnc3ccccc23)s1 [GW693542] | 14
COc1ccc(Nc2nccc(-c3cccc(NC(=O)c4cc5cc(F)ccc5[nH]4)c3)n2)cc1 [GSK1229782] | 11

Task: # return recorded %Inh for entry CN(C)CCN(C)C(=O)c1cc(-c2ccncc2)c(-c2ccc(Cl)c(O)c2)o1.Cl.Cl [SB-710397]
Result: 57

Task: Tell us which %Inh value is on record for Cc1ccc(-c2cc(-c3c[nH]nc3-c3ccccn3)ccn2)cc1 [GW684088]
Result: 62

Task: State its %Inh: O=c1cc(N2CCOCC2)nc2n(Cc3cccc(Cl)c3Cl)ccn12 [GSK2286295]
Result: 20

Task: Please report %Inh for the following compound: Cc1ccc(NC(=O)Nc2cccc(Cl)c2)cc1-c1ccc(C(=O)Nc2ccncc2)cc1 [GSK1398468]
Result: 1

Task: Given the compound COc1cc2ncnc(Nc3ccc4nc(-c5ccccc5)[nH]c4c3)c2cc1OC.Cl [GW282450] , write its reported %Inh.
Result: 5

Task: Name the recorded %Inh of the compound listed here: O=S(=O)(c1ccc(-c2ccnc3[nH]ccc23)cc1)N1CCCC1 [GSK846226]
Result: 3

====

Test system: IGF1R
conditionDetails: concentration: 1 μM, replicates: in singlicate; n = 1
measuredEndpoint: %Inh (%)
Your answer should be a plain number; it is taken to be in %.

CC(C)(C)c1ccc(C(=O)Nc2cn3cc(Cl)ccc3n2)cc1 | 0
O=c1cc(N2CCOCC2)nc2n(Cc3cccc(Cl)c3Cl)ccn12 [GSK2286295] | 12
O=C(Nc1n[nH]c2nc(-c3nccs3)c(Br)cc12)C1CCCC1 [SB-742609] | 21
O=C1NC(=O)C(N2CCc3ccccc32)=C1c1ccccc1Cl [SB-373598] | 29
Cn1cncc1-c1ccc2ncnc(Nc3ccc(OCc4ccccc4)cc3)c2c1 [GW320571] | 24

Task: Look up and report measured %Inh for this entry: CC1=C(C(=O)Nc2cc3cn[nH]c3cc2F)C(c2ccc(C(F)(F)F)cc2)CC(=O)N1 (stereo not drawn) [GSK429286]
Result: 0

Task: Name the recorded %Inh of the item Cc1csc(-c2nc(Nc3ccncc3)c3ccccc3n2)n1 [GW869640] in your answer.
Result: 14

Task: Read off the recorded %Inh for C[C@@H]1CCCCN1c1cc(-c2ccc3c(N)n[nH]c3c2)nc(N)n1 [GSK2258759]
Result: 4

Task: Output %Inh of Nc1nc(-c2nccs2)c(-c2ccnc3ccccc23)s1 [GW693542]
Result: 10

====

System: CDK9
conditionDetails: concentration: 1 μM, replicates: in singlicate; n = 1
measuredEndpoint: %Inh (%)
// note: answer is a bare numeric in %

Task: Recall and state the measured %Inh for `Cl.c1ccc(-c2n[nH]cc2-c2ccnc(-c3ccc(CN4CCOCC4)cc3)c2)nc1` .
Result: 0

Task: Please report the measured %Inh for COc1cc2ncn(-c3cc(OCC4CCCO4)c(C(N)=O)s3)c2cc1OC (stereo not drawn)
Result: 0

Task: Hello, please tell me recorded %Inh for this one: `Cn1ccc2ncnc(Oc3ccc(NC(=O)Nc4ccccc4)cc3)c21`
Result: 9

Task: Check the records and state %Inh for `Fc1cc(Cl)ccc1Nc1ccnc2cc(-c3ccc(CN4CCCCC4)o3)ccc12`
Result: 0

Task: Provide %Inh value for the following compound: `Cc1c(Cn2ccn3c(=O)cc(N4CCOCC4)nc23)cccc1C(F)(F)F`
Result: 0

Task: Kindly indicate its recorded %Inh. Item: `Cn1ccc2ncnc(Oc3cccc(C(=O)Nc4ccccc4)c3)c21`
Result: 1

Task: Report %Inh, nothing else, for this compound: `Clc1cc(Cl)cc(Nc2ccnc(Nc3cc(Cl)cc(Cl)c3)n2)c1`
Result: 13

Task: Identify measured %Inh associated with `Cc1ccccc1-n1cnc2c(N)ncnc21`
Result: 0

Task: Give recorded %Inh. `Nc1nc(-c2nccs2)c(-c2ccnc3ccccc23)s1`
Result: 0

Task: Find the measured %Inh of `Cl.O=C(Nc1cccc(-c2nn3ncccc3c2-c2ccnc(Nc3cccnc3)n2)c1)c1c(F)cccc1F` and report it.
Result: 0

Task: Return the recorded %Inh value; entry: CCCc1ccc(S(=O)(=O)NC2CCN(c3ccnc(Nc4ccc(F)cc4)n3)C2)cc1 (stereo not drawn)
Result: 0

Task: Read the entry `CN1C(=O)C(Nc2ccc(Cl)c(C(=O)O)c2)=C(c2ccc(Cl)cc2)C1=O` and write its reported %Inh.
Result: 0

====

Tested on: CDC2L2
conditionDetails: concentration: 1 μM, replicates: in singlicate; n = 1
Is %Inh at least 3%? Then yes (1). If not, no (0).

Example entries and their recorded answers appear below.
COc1cc2ncn(-c3cc(OCC4CCCO4)c(C(N)=O)s3)c2cc1OC (stereo not shown) | yes (1)
COc1cccc(-c2cc(-c3c[nH]nc3-c3ccccn3)ccn2)c1 | yes (1)
Cc1cc(N2Cc3ccccc3C2)nc(Nc2ccc(S(=O)(=O)N3CCOCC3)cc2)n1.Cl | yes (1)
Cc1ccc(NC(=O)Nc2cc(C(C)(C)C)nn2-c2ccccc2)cc1 | yes (1)
Cc1cccc(-c2nc(Nc3ccc4[nH]ncc4c3)c3ccccc3n2)n1 | yes (1)
Fc1cc(Cl)ccc1Nc1ccnc2cc(-c3ccc(CN4CCCCC4)o3)ccc12 | yes (1)
COc1cc2ncnc(Nc3ccc4nc(-c5ccccc5)[nH]c4c3)c2cc1OC.Cl | yes (1)
Cc1cc(-c2ccc3c(c2)CC[C@@H](N[C@@H](C)c2ccccc2)C3)cnc1N.Cl | no (0)

Task: Is reported %Inh greater than or equal to 3% here: `Cc1cccc(-c2nc(-c3ccc(S(C)(=O)=O)cc3)sc2-c2ccnc(NCCc3ccccc3)c2)c1`
Result: no (0)

Task: I'd appreciate it if you could say whether `CS(=O)(=O)c1ccc(-c2c(-c3ncn[nH]3)sc(N3CCOCC3)c2C#N)cc1` has %Inh at least equal to 3%.
Result: yes (1)

Task: API: above_or_equal(metric=%Inh, cutoff=3%) for item `Cl.Oc1ccc(-c2nc(-c3ccccc3)[nH]c2-c2ccncc2)cc1`
Result: yes (1)

Task: Exam item: decide whether the reported %Inh for `Cc1cccc(-c2nc(Nc3ccncc3)c3ccccc3n2)n1` is at least 3%.
Result: no (0)
